Tested on: DeltatarO mutant
ASSAY_PROTOCOL: S. aureus survival, RN4220 and DeltatarO strains – OD600, teichoic acid synthesis inhibitors, primary screen (AID 463173)
CONDITION_NOTES: S. aureus RN4220 wild type/DeltatarO growth, OD600, 18 h, hits give low values, screened at 18.75 µg/mL (by protocol)
The whole screen tested about 52,000 compounds, of which about 4,300 (8.3%) were called active. The entries come from a sample that favours actives as a whole.
Criterion: survival strictly under 80%. Met: t. Not met: f.

Known results for molecules:
MOLECULE: COC(=O)CNC(=O)N1CCN(S(=O)(=O)c2ccc3c(ccn3C)c2)CC1
LABEL: f
//
MOLECULE: COc1ccc(C(=O)NCc2nc(-c3cccc(C)c3)no2)cc1OC
LABEL: f
//
MOLECULE: Fc1ccccc1Nc1ncnc2c1nc1n2CCCCC1
LABEL: t
//
MOLECULE: Cc1ccc2sc(N3CCN(C(=O)CCS(=O)(=O)c4ccc(F)cc4)CC3)nc2c1C
LABEL: f
//
MOLECULE: CCc1ccccc1N1CC(c2nc3ccccc3n2CCOc2ccc(Cl)c(C)c2)CC1=O (configuration not stated)
LABEL: t

Asked: Does the reported survival of COc1ccc(-c2noc(COc3cc(C)c(Br)c(C)c3)n2)cc1OC stay below 80%?
Given back: t

Asked: Does the reported survival of CCOc1cc(CNC(=O)c2ccc3nc(C(C)C)oc3c2)cc(OCC)c1OCC stay below 80%?
Given back: t

---

System: DeltatarO mutant
ASSAY_PROTOCOL: S. aureus survival, RN4220 and DeltatarO strains – OD600, teichoic acid synthesis inhibitors, primary screen (AID 463173)
CONDITION_NOTES: S. aureus RN4220 wild type/DeltatarO growth, OD600, 18 h, screened at 18.75 µg/mL (by protocol)
The campaign covered roughly 52,000 compounds. About 4,300 (8.3%) were called active. Rule as the data show it: active = survival mostly below about 52% (no sharp cut-off); inactive = mostly above about 56%. The entries come from a sample that favours actives as a whole.
Result category, one only: true (1) = active, false (0) = inactive

Known results for compounds:
COMPOUND: CCN(c1ccccc1)S(=O)(=O)c1nnc(NC(=O)c2ccccc2)s1
LABEL: true (1)
//
COMPOUND: CCN(c1ccccc1)S(=O)(=O)c1nnc(NC(=O)C2CCCCC2)s1
LABEL: true (1)
//
COMPOUND: Cc1nnc(N(C)C(=O)CNC(=O)c2ccccc2)s1
LABEL: false (0)
//
COMPOUND: CCN(c1ccccc1)S(=O)(=O)c1nnc(NC(=O)C(C)Oc2ccccc2)s1 (stereo not given)
LABEL: false (0)
//
COMPOUND: CCN(c1ccc(C)cc1)S(=O)(=O)c1nnc(NC(=O)C2CCCCC2)s1
LABEL: false (0)

Asked: Fill in: this test's call for CCN(c1ccccc1C)S(=O)(=O)c1ccc(N2CCCCS2(=O)=O)cc1 is ___
Given back: false (0)

Asked: Fill in: this test's call for CCN(c1ccc(Cl)cc1)S(=O)(=O)c1nnc(NC(=O)C2CCCCC2)s1 is ___
Given back: false (0)

Asked: Fill in: this test's call for COc1ccc(-c2cc3nccc(C4CCN(C(=O)OC(C)(C)C)CC4)n3n2)cc1 is ___
Given back: false (0)

Asked: Fill in: this test's call for CCN(c1ccccc1)S(=O)(=O)c1nnc(NC(=O)c2cccs2)s1 is ___
Given back: true (1)

Asked: Fill in: this test's call for CCN(c1ccc(C)cc1)S(=O)(=O)c1nnc(NC(=O)c2cccs2)s1 is ___
Given back: true (1)

---

Test system: DeltatarO mutant
ASSAY_PROTOCOL: S. aureus survival, RN4220 and DeltatarO strains – OD600, teichoic acid synthesis inhibitors, primary screen (AID 463173)
CONDITION_NOTES: S. aureus RN4220 wild type/DeltatarO growth, OD600, 18 h, hits give low values, screened at 18.75 µg/mL (by protocol)
The whole screen tested about 52,000 compounds, of which about 4,300 (8.3%) were called active. The full list was thinned out, with actives kept by preference.
Criterion: survival strictly under 70%. Met: 1. Not met: 0.

Known results for molecules:
MOLECULE: Cc1cccc(Cn2nnc3c(=O)[nH]c(C4CCCN(C(=O)c5ccc(C(C)(C)C)cc5)C4)nc32)c1 (centres undefined)
SYSTEM_NAME: DeltatarO mutant
LABEL: 1

MOLECULE: CC(C)(C)C(=O)N1CCCC(c2nc3c(nnn3Cc3ccc(C(C)(C)C)cc3)c(=O)[nH]2)C1 (centres undefined)
SYSTEM_NAME: DeltatarO mutant
LABEL: 1

Asked: Does the reported survival of COc1cccc(Cn2nnc3c(=O)[nH]c(C4CCCN(C(=O)c5ccc(C)cc5)C4)nc32)c1 (centres undefined) stay below 70%?
Given back: 0

Asked: Does the reported survival of COc1ccccc1-c1nc2cc(NC(=O)c3ccccc3Cl)ccc2o1 stay below 70%?
Given back: 1

Asked: Does the reported survival of Cc1ccc(Cn2nnc3c(=O)[nH]c(C4CCCN(C(=O)c5ccco5)C4)nc32)cc1 (centres undefined) stay below 70%?
Given back: 0

Asked: Does the reported survival of O=C(COc1ccccc1Cl)Nc1ccc(Cl)c(-c2nc3ccccc3o2)c1 stay below 70%?
Given back: 1

Asked: Does the reported survival of CCc1ccc(Cn2nnc3c(=O)[nH]c(C4CCCN(C(=O)c5cccc(Cl)c5)C4)nc32)cc1 (centres undefined) stay below 70%?
Given back: 0

---

System: DeltatarO mutant
ASSAY_PROTOCOL: S. aureus survival, RN4220 and DeltatarO strains – OD600, teichoic acid synthesis inhibitors, primary screen (AID 463173)
CONDITION_NOTES: S. aureus RN4220 wild type/DeltatarO growth, OD600, 18 h, hits give low values, screened at 18.75 µg/mL (by protocol)
The campaign covered roughly 52,000 compounds. About 4,300 (8.3%) were called active. This excerpt belongs to a sample that is enriched for actives.
RECORDED_METRIC: survival (%)
Give your result in % as a bare value.

COMPOUND_STRING: COC(=O)c1c(Oc2ccc(OC)cc2)nnc(-c2ccccc2)c1-c1ccccc1
NUMERIC_RESULT: 101

Asked: For the compound shown here, COc1ccc2c(c1)sc1ncc(C(=O)NCc3ccccc3F)c(=O)n12 , give the reported survival.
Given back: 101

Asked: For the compound shown here, CCOC(=O)c1c(Nc2ccc(OCC)cc2)nnc(-c2ccccc2)c1-c1ccccc1 , give the reported survival.
Given back: -2

Asked: For the compound shown here, CCOC(=O)c1c(Oc2ccc(OC)cc2)nnc(-c2ccccc2)c1-c1ccccc1 , give the reported survival.
Given back: 75

Asked: For the compound shown here, C#CCOc1ccc(-c2nnc(Nc3cccc(C)c3)c3ccccc23)cc1 , give the reported survival.
Given back: 31

Asked: For the compound shown here, COc1ccc(-c2nnc(Nc3ccc(OC)c(C(N)=O)c3)c3ccccc23)cc1 , give the reported survival.
Given back: 41

Asked: For the compound shown here, CCOC(=O)c1c(C)c(-c2ccccc2)n(CC(=O)Nc2ccc(OCC)cc2)c1C , give the reported survival.
Given back: 73

Asked: For the compound shown here, Cc1cccc(Nc2nnc(-c3ccc(C)c(S(=O)(=O)N4CCCCC4)c3)c3ccccc23)c1 , give the reported survival.
Given back: 104

Asked: For the compound shown here, C#CCOc1ccc(-c2nnc(Nc3ccc(NC(C)=O)cc3)c3ccccc23)cc1 , give the reported survival.
Given back: 60

Asked: For the compound shown here, CCOC(=O)c1c(Nc2ccc(OC)cc2)nnc(-c2ccccc2)c1-c1ccccc1 , give the reported survival.
Given back: 7

---

Tested on: DeltatarO mutant
ASSAY_PROTOCOL: S. aureus survival, RN4220 and DeltatarO strains – OD600, teichoic acid synthesis inhibitors, primary screen (AID 463173)
CONDITION_NOTES: S. aureus RN4220 wild type/DeltatarO growth, OD600, 18 h, screened at 18.75 µg/mL (by protocol)
Screen size: about 52,000 compounds; about 4,300 (8.3%) were called active. Rule as the data show it: active = survival mostly below about 52% (no sharp cut-off); inactive = mostly above about 56%. What follows is part of a selection rich in actives, with near analogues and random picks from the rest.
Result category, one only: Yes for active, No for inactive

Known results for molecules:
MOLECULE: COc1ccccc1Cn1ccn(Cc2c(F)cccc2Cl)c(=O)c1=O
SYSTEM_NAME: DeltatarO mutant
LABEL: No

MOLECULE: Cc1ccc(NC(=O)C2CCN(C(=O)c3sc4nc[nH]c(=O)c4c3C)CC2)cc1F
SYSTEM_NAME: DeltatarO mutant
LABEL: No

MOLECULE: O=c1c(=O)n(-c2ccccc2)ccn1Cc1c(F)cccc1Cl
SYSTEM_NAME: DeltatarO mutant
LABEL: Yes

MOLECULE: O=c1c(=O)n(Cc2c(F)cccc2Cl)ccn1Cc1ccccc1
SYSTEM_NAME: DeltatarO mutant
LABEL: No

MOLECULE: Cc1ccc(-c2nnc(Nc3cccc(Cl)c3)c3ccccc23)cc1S(=O)(=O)N1CCN(C)CC1
SYSTEM_NAME: DeltatarO mutant
LABEL: No

Asked: Fill in: this test's call for CCOc1ccc2cc(-c3nnc(Nc4ccc(C)cc4)s3)c(=O)oc2c1 is ___
Given back: No

Asked: Fill in: this test's call for CCOc1ccc(C(C(=O)NC2CCCC2)N(Cc2ccco2)C(=O)Cn2nnc3ccccc32)cc1OC (stereo not given) is ___
Given back: No

Asked: Fill in: this test's call for Cc1ccc(Cl)cc1NC(=O)C1CCCN(S(=O)(=O)c2c(C)noc2/C=C/N(C)C)C1 (stereo not given) is ___
Given back: No

Asked: Fill in: this test's call for CC[n+]1c(C)sc2sc3ccccc3c21 is ___
Given back: No

Asked: Fill in: this test's call for CC(C)NC(=O)c1ccc(NC(=O)N2CCCCc3ccccc32)cc1 is ___
Given back: No
